Each recorded value in this set is attributed to ChEMBL document CHEMBL1201862.

The entries below are paired with their reported GI50.
tested on: LOX IMVI; assay: NCI tumour cell line growth inhibition, 48 h
Activity calls are given as the source filed them. No stated cut-off is given here; in the data, active = GI50 up to about 1.1 µM and inactive = higher.

Some solved cases for reference:
OC1c2c(ccc3c2CCC3)CC12Cc1ccccc1C2 (stereo not given): 15.9 µM (inactive)
Cc1ccc(S(=O)(=O)N/N=C2/CCCOC2)cc1: > 100 µM (inactive)
CC(=O)OC[C@H]1[C@@H]2C(CC[C@]13CO3)OC(=O)CC(C)[C@]2(C)CCc1ccoc1 (stereo not given in full): > 100 µM (inactive)
COc1cccc(C2c3cc4c(cc3OC(C)(N3CCCC3)C2C)OCO4)c1OC (stereo not given): 11.7 µM (inactive)

Below: the item to evaluate.
Task item: Suppose we examine the compound C=C(C)C(CC=C(C)C)Cc1c(O)cc(OC)c2c1OC(c1ccc(O)cc1O)C(O)C2=O (stereo not given) ; what GI50 value has been reported?
Reply: 20 µM (inactive)
